Values from ChEMBL document CHEMBL6109047

Provide the recorded LC50 for the entries that follow.
assay: Toxicity in CD-1 mouse infected with Trypanosoma cruzi Y MHOM/MX/1994/NINOA from blood stream trypomastigotes assessed as reduction in parasite growth by measuring lethal concentration; conditions: in vivo, 24 h
A number alone suffices; assume µM.

Task: Given the entry Fc1cccc(F)c1CSc1nc2ccccc2s1 , report its measured LC50.
Output: 110

Task: Given the entry Fc1c(F)c(F)c(CSc2nc3ccccc3s2)c(F)c1F , report its measured LC50.
Output: 147

Task: Given the entry c1ccc(CSc2nc3ccccc3s2)cc1 , report its measured LC50.
Output: 123

###

system: Trypanosoma cruzi; assay: Antitrypanosomal activity against bloodstream trypomastigote form of Trypanosoma cruzi Y assessed as reduction in parasite growth; format: functional, organism-based
Provide the recorded pEC50 for the entries that follow.
The meaning of pEC50 here: minus log10 of the concentration in molar units.

Task: Identify the measured pEC50 of COc1cccc(/C=C/c2ccc3cccc(O)c3n2)c1CC(=O)O for Trypanosoma cruzi.
Output: 4.44

Task: Identify the measured pEC50 of O=C(O)Cc1ccccc1/C=C/c1ccc2cccc(O)c2n1 for Trypanosoma cruzi.
Output: 4.39
